# Test Target: T1, human [1-305]-mouse chimeric EL (human; mouse, UniProt Q9WVG5 306-500)
# T1 construct: Heparin extract, captured or detected by an anti-C2-tag antibody; also called human-mouse chimeric EL
# T1 sequence: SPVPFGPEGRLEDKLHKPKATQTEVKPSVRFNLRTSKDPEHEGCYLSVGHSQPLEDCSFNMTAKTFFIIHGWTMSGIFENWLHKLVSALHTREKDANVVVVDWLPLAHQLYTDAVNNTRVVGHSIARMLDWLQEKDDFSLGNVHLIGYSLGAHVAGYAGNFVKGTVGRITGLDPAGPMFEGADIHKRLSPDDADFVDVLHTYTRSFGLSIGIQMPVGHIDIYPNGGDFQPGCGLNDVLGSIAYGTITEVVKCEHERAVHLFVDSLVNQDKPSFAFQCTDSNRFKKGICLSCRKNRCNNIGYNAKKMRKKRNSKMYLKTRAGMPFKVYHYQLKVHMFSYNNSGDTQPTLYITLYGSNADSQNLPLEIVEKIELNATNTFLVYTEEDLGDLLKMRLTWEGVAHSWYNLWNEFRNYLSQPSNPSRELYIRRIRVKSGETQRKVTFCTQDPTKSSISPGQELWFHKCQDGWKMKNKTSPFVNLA
# Protocol Details: Biacore; EL captured by anti-C2-tag Ab; bivalent fit
This listing pairs binders with measured kon.
Only the number, expressed in M⁻¹ s⁻¹, is required.

• h55A1-S1 (antibody, V domains shown, humanized) VH: QVQLVQSGSELKKPGASVKVSCKASGYTFTNYGMNWVRQAPGQGLEWMGWINTYSGVPTYAGDFKGRFVFSLDTSVSTAYLQISSLKAEDTAVYYCARRGYYGRRYFDVWGKGTTVTVSS VL: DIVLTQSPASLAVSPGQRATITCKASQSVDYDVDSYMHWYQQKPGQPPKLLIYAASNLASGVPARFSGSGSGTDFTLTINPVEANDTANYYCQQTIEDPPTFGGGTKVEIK = 27000

Next item in the queue.
input: Please report the measured kon for h55A1-S6 (antibody, V domains shown, humanized) VH: QVQLVQSGSELKKPGASVKVSCKASGYTFTNYALNWVRQAPGQGLEWMGWINTYSGVGTYAGEFKGRFVFSLDTSVSTAYLQISSLKAEDTAVYYCARRGFYGRRFFDVWGKGTTVTVSS VL: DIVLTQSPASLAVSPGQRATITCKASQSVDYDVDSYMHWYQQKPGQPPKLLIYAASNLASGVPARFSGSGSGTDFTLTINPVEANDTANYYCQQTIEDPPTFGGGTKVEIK
output: 47000
